# measurementTarget: Protein-arginine deiminase type-1 (Homo sapiens)
# protocolNotes: inhibitors of PAD1, PAD2, PAD3 and PAD4, late-stage follow-up, selectivity assay for PAD4 inhibitor project, biochemical, colorimetric, BAEE substrate, recombinant enzymes (AID 588560)
# runConditions: recombinant PAD1-4, BAEE citrulline colorimetric, 15 min; PAD1; at 10 µM; stronger effect = higher value
quantityMeasured: inhibition (%)
Give just the number in %; leave the unit off.

Sample answers from the record:
COC(=O)c1nnc(C(=O)OC)c(-c2ccc3cc(OC)ccc3n2)n1: -21
COc1ccc2ncccc2c1[N+](=O)[O-]: -12
COC(=O)c1nnc(C(=O)OC)c(-c2ccc3c([N+](=O)[O-])c(OC)ccc3n2)n1: -38

Now for a further compound.
Would you kindly share the measured inhibition for COC(=O)c1cccc(-c2ccc3c(n2)C(=O)C(Br)=CC3=O)n1 ? 0

###

The compounds listed here are annotated with their inhibition.
# measurementTarget: Protein-arginine deiminase type-4 (Homo sapiens)
# protocolNotes: inhibitors of PAD1, PAD2, PAD3 and PAD4, late-stage follow-up, selectivity assay for PAD4 inhibitor project, biochemical, colorimetric, BAEE substrate, recombinant enzymes (AID 588560)
# runConditions: recombinant PAD1-4, BAEE citrulline colorimetric, 15 min; PAD4; at 10 µM; stronger effect = higher value
Activity calls are given as the source filed them.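 How the source made its calls: active means inhibition of 50% or more against any one of four protein arginine deiminase enzymes; inactive means the rest.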

NC1=CC(=O)c2cccnc2C1=O: 99%
COC1=C(I)C(=O)c2nc(C#N)ccc2C1=O: 97%
NC1=CC(=O)c2ccc(-c3cc(C(=O)O)ccc3N)nc2C1=O: 13% (inactive)

Now for a further compound.
Would you kindly share the measured inhibition for COC1=C(Br)C(=O)c2nc(-c3ccccn3)ccc2C1=O ? 91%

###

The compounds listed here are annotated with their inhibition.
# measurementTarget: Protein-arginine deiminase type-1 (Homo sapiens)
# protocolNotes: inhibitors of PAD1, PAD2, PAD3 and PAD4, late-stage follow-up, selectivity assay for PAD4 inhibitor project, biochemical, colorimetric, BAEE substrate, recombinant enzymes (AID 588560)
# runConditions: recombinant PAD1-4, BAEE citrulline colorimetric, 15 min; PAD1; at 10 µM; stronger effect = higher value
Give just the number in %; leave the unit off.

Sample answers from the record:
COC1=C(N)C(=O)c2ncccc2C1=O: 57
COC(=O)c1nnc(C(=O)OC)c(-c2ccc3ccccc3n2)n1: -41
COC(=O)c1cc(-c2ccccc2)c(C(=O)OC)c(-c2ccc3ccccc3n2)n1: -20
CCOC(=O)c1nc(C(=O)OCC)c(C(=O)OCC)c(-c2ccc(OC)c(OC)c2OCc2ccccc2)c1C: -15

Would you kindly share the measured inhibition for O=C1C=C(Br)C(=O)c2ncccc21 ? -17

Would you kindly share the measured inhibition for NC1=C(N)C(=O)c2ccccc2C1=O ? 22

###

# measurementTarget: Protein-arginine deiminase type-3 (Homo sapiens) (UniProt Q9ULW8)
# Sequence (Q9ULW8 whole entry, looked up): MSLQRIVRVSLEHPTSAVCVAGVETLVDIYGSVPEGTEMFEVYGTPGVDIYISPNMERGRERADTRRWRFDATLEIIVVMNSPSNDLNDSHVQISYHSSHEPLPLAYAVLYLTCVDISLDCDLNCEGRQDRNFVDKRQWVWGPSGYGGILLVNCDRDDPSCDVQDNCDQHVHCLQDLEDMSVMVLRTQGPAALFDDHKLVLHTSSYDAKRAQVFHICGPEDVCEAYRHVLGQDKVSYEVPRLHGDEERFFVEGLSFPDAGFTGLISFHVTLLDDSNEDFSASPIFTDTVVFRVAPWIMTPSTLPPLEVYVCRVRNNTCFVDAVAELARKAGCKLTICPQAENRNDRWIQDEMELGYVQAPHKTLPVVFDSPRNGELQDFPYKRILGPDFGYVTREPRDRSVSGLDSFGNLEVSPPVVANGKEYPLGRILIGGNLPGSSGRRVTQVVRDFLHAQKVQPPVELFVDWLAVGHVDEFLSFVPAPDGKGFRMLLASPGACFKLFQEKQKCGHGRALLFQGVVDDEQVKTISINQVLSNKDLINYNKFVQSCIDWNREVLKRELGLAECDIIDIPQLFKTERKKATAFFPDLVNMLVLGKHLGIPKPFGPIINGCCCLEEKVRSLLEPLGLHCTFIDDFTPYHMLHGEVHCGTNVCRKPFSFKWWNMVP
# protocolNotes: inhibitors of PAD1, PAD2, PAD3 and PAD4, late-stage follow-up, selectivity assay for PAD4 inhibitor project, biochemical, colorimetric, BAEE substrate, recombinant enzymes (AID 588560)
# runConditions: recombinant PAD1-4, BAEE citrulline colorimetric, 15 min; PAD3; at 10 µM
The source made the active and inactive calls.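 The calls were made as follows: active = inhibition of 50% or more against any one of four protein arginine deiminase enzymes; inactive = the rest.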
Outcome (select one): active, inactive

Known results for compounds:
NC1=CC(=O)c2ccc(-c3cccc(C(=O)O)n3)nc2C1=O: active
CCOC(=O)c1nc(C(=O)OCC)c(C(=O)OCC)c(-c2ccc(OC)c(OC)c2OCc2ccccc2)c1C: inactive
COC(=O)c1nc(C(=O)OC)c(NC(C)=O)c(-c2ccccc2Br)c1C: inactive
NC1=CC(=O)c2ccc(-c3cc(C(=O)O)ccc3N)nc2C1=O: inactive
COC1=C(I)C(=O)c2nc(C#N)ccc2C1=O: active
O=C(O)c1cccc(-c2ccc3ccc(Br)c(OCc4ccccc4)c3n2)n1: inactive
COC(=O)c1nnc(C(=O)OC)c(-c2ccc3ccccc3n2)n1: inactive
COc1ccc2ncccc2c1[N+](=O)[O-]: inactive

Please state the recorded outcome for this compound: COc1ccc2nc(C#N)ccc2c1 inactive

Please state the recorded outcome for this compound: COC(=O)c1nnc(C(=O)OC)c(-c2ccc3c([N+](=O)[O-])c(OC)ccc3n2)n1 inactive

Please state the recorded outcome for this compound: COC(=O)c1cc(-c2ccccc2)c(C(=O)OC)c(-c2ccc3ccccc3n2)n1 inactive

###

# measurementTarget: Protein-arginine deiminase type-2 (Homo sapiens) (UniProt Q9Y2J8)
# Sequence (Q9Y2J8 whole entry, looked up): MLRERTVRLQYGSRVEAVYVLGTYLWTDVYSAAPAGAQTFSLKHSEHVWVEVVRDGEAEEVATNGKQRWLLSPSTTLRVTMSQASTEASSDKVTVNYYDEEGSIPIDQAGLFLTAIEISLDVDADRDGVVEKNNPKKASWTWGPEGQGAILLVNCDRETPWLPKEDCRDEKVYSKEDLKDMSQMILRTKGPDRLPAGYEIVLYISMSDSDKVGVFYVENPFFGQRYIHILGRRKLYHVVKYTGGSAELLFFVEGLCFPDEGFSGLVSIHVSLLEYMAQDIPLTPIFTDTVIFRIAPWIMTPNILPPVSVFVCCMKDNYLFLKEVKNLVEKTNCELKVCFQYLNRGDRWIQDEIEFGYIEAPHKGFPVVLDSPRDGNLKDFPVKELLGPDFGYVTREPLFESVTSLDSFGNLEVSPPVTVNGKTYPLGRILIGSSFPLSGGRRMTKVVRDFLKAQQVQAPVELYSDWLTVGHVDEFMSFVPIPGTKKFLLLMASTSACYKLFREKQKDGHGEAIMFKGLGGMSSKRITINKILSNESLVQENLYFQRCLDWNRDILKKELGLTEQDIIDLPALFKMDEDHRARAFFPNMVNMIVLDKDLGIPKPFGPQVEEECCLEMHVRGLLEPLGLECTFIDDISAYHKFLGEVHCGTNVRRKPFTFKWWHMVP
# protocolNotes: inhibitors of PAD1, PAD2, PAD3 and PAD4, late-stage follow-up, selectivity assay for PAD4 inhibitor project, biochemical, colorimetric, BAEE substrate, recombinant enzymes (AID 588560)
# runConditions: recombinant PAD1-4, BAEE citrulline colorimetric, 15 min; PAD2; at 10 µM; stronger effect = higher value
The compounds listed here are annotated with their inhibition.
Give just the number in %; leave the unit off.

COC(=O)c1nnc(C(=O)OC)c(-c2ccc3ccccc3n2)n1: -13

Would you kindly share the measured inhibition for NC1=CC(=O)c2cccnc2C1=O ? 89

Would you kindly share the measured inhibition for COC(=O)c1nnc(C(=O)OC)c(-c2ccc3c([N+](=O)[O-])c(OC)ccc3n2)n1 ? 7

Would you kindly share the measured inhibition for COC1=C(N)C(=O)c2ncccc2C1=O ? 78

Would you kindly share the measured inhibition for NC1=C(N)C(=O)c2ccccc2C1=O ? 28

Would you kindly share the measured inhibition for COC(=O)c1nc(-c2ccc3c(n2)C(=O)C(Br)=CC3=O)c2[nH]c3ccccc3c2c1C ? -15

###

The compounds listed here are annotated with their inhibition.
# measurementTarget: Protein-arginine deiminase type-4 (Homo sapiens)
# protocolNotes: inhibitors of PAD1, PAD2, PAD3 and PAD4, late-stage follow-up, selectivity assay for PAD4 inhibitor project, biochemical, colorimetric, BAEE substrate, recombinant enzymes (AID 588560)
# runConditions: recombinant PAD1-4, BAEE citrulline colorimetric, 15 min; PAD4; at 10 µM; stronger effect = higher value
Give just the number in %; leave the unit off.

O=C1C(Br)=CC(=O)c2ncccc21: 10
O=C1C(O)=C(O)C(=O)c2ncccc21: 83

Would you kindly share the measured inhibition for COC1=CC(=O)c2nc(C#N)ccc2C1=O ? 97

Would you kindly share the measured inhibition for NC1=C(N)C(=O)c2ccccc2C1=O ? 43

Would you kindly share the measured inhibition for NC1=CC(=O)c2ccc(-c3cccc(C(=O)O)n3)nc2C1=O ? 98

Would you kindly share the measured inhibition for COC1=C(N)C(=O)c2ncccc2C1=O ? 87

Would you kindly share the measured inhibition for O=C1C=C(Br)C(=O)c2ncccc21 ? 56

###

# measurementTarget: Protein-arginine deiminase type-2 (Homo sapiens)
# protocolNotes: inhibitors of PAD1, PAD2, PAD3 and PAD4, late-stage follow-up, selectivity assay for PAD4 inhibitor project, biochemical, colorimetric, BAEE substrate, recombinant enzymes (AID 588560)
# runConditions: recombinant PAD1-4, BAEE citrulline colorimetric, 15 min; PAD2; at 10 µM; stronger effect = higher value
The compounds listed here are annotated with their inhibition.
Give just the number in %; leave the unit off.

COC(=O)c1nc(C(=O)OC)c(N)c(-c2ccccc2Br)c1C: -22
COC(=O)c1nc(C(C)=O)c2[nH]c3ccccc3c2c1C: -29
NC1=CC(=O)c2ccc(-c3cc(C(=O)O)ccc3N)nc2C1=O: -19
O=C1C(O)=C(O)C(=O)c2ncccc21: 41
COC(=O)c1cc(-c2ccccc2)c(C(=O)OC)c(-c2ccc3ccccc3n2)n1: -18

Now for a further compound.
Would you kindly share the measured inhibition for COC(=O)c1cccc(-c2ccc3c(n2)C(=O)C(N)=CC3=O)n1 ? 92

###

The compounds listed here are annotated with their inhibition.
# measurementTarget: Protein-arginine deiminase type-2 (Homo sapiens) (UniProt Q9Y2J8)
# protocolNotes: inhibitors of PAD1, PAD2, PAD3 and PAD4, late-stage follow-up, selectivity assay for PAD4 inhibitor project, biochemical, colorimetric, BAEE substrate, recombinant enzymes (AID 588560)
# runConditions: recombinant PAD1-4, BAEE citrulline colorimetric, 15 min; PAD2; at 10 µM; stronger effect = higher value
Give just the number in %; leave the unit off.

Would you kindly share the measured inhibition for COC(=O)c1cccc(-c2ccc3c(n2)C(=O)C(Br)=CC3=O)n1 ? -26

Would you kindly share the measured inhibition for COC1=C(I)C(=O)c2nc(C#N)ccc2C1=O ? 63

Would you kindly share the measured inhibition for COC(=O)c1nnc(C(=O)OC)c(-c2ccc3cc(OC)ccc3n2)n1 ? -14

Would you kindly share the measured inhibition for COc1ccc2nc(C#N)ccc2c1 ? 35

Would you kindly share the measured inhibition for COc1ccc2ncccc2c1[N+](=O)[O-] ? 17

Would you kindly share the measured inhibition for COC1=C(Br)C(=O)c2ncccc2C1=O ? 88

Would you kindly share the measured inhibition for NC1=CC(=O)c2ccc(-c3ccccn3)nc2C1=O ? 101

Would you kindly share the measured inhibition for O=C(O)c1cccc(-c2ccc3ccc(Br)c(OCc4ccccc4)c3n2)n1 ? -18

Would you kindly share the measured inhibition for NC1=CC(=O)c2ccc(-c3cccc(C(=O)O)n3)nc2C1=O ? 85
